# Procedure details: amyloid nucleation score (Sup35N fusion, yeast selection) (log enrichment); library NNK2; higher = more nucleation; inactive = no reads after selection;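 also: zero at mode of non-aggregating sequences after 7 days selection at 30°C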
Lab note: compare amyloid nucleation score against 0.7. Equal or greater, write Y. Smaller, write N.

Take a look at these entries with their results.
Substance	Label class
YEISSLRSFRSVLNWYMSGS	Y
KSHAPFVLMCRIGVGSKCGK	Y
TLVHSKF	Y
GIFSCRLCSMLIELLMLRIM	N
ACCSCIIVFINFTSLFFYRF	N

Determine whether this substance has amyloid nucleation score no lower than 0.7: YYGQSPALDRR N

Please indicate if the recorded amyloid nucleation score for VVEVCC meets or exceeds 0.7. N

hey, is amyloid nucleation score for this one >= 0.7? RGKFHCFL N

Dear colleague, could you confirm whether FYIGILGDLWWRRR has amyloid nucleation score at or above 0.7? Y

Does the substance RRSFTTADTCLLIS have recorded amyloid nucleation score that is 0.7 or more? N

Does the reported amyloid nucleation score for VWCCHLNINVASSLTVSCTR fall at or above the 0.7 mark? N

Can LYEVLESVMIGI be said to have amyloid nucleation score at or above 0.7? N

Is amyloid nucleation score at least 0.7? Consider PATVVILS Y

Could you verify whether the entry TLYRPMTIMFMRVHHEVRWF shows amyloid nucleation score of no less than 0.7? Y

Reported amyloid nucleation score at or above 0.7? SSIVSSPVCPLCGWGWF Y

* * *

# Lookup of reported amyloid nucleation score keyed by entry
# Procedure details: amyloid nucleation score (Sup35N fusion, yeast selection) (log enrichment); library NNK2; higher = more nucleation; inactive = no reads after selection
Note: the reply should be a number with no unit written.

Give its amyloid nucleation score value. Item: IAGYGVHTLVQCVV 0.082

# query: amyloid nucleation score of entry ISIFFVMLLMYRMFGYVECA 0.856

Given the entry VFLGVSGETVNSTGYFTGMN , report its measured amyloid nucleation score. -2.13

Which amyloid nucleation score is listed for PIYCINRFDNWYLL ? 5.94

* * *

# Procedure details: amyloid nucleation score (Sup35N fusion, yeast selection) (log enrichment); library NNK1; higher = more nucleation; inactive = no reads after selection
// label = Criterion met if amyloid nucleation score is not less than -0.09, otherwise Criterion not met

Example entries and their recorded answers appear below.
Substance	Label class
SVWNILLIV	Criterion met
EAVSPYMYNYFRMANEQ	Criterion met
VWGDRWTTVSGRSAEYRTKS	Criterion met
MAVSNLSDLRLMSMRHFS	Criterion not met
PSYIHMVSGRFSFSSPRGQK	Criterion met
YCCYAVRACFN	Criterion met
KLRSGCLDYIVIDLWTF	Criterion not met
TTHLSHIYLLDASYNYKDSR	Criterion met
SGAPLDAGFNIA	Criterion met
YLICWVIPGSNVGLMVGMTA	Criterion met

Please check the record ENVSVIRFQRRYRSCPDHGL and state if its amyloid nucleation score is at or above -0.09. Criterion met

Confirm if amyloid nucleation score reported for the substance TFQCCLDVCASVC is -0.09 or above. Criterion met

Check if amyloid nucleation score >= -0.09 (inclusive). Item: EIYGKCLNPIGL Criterion met

Could you verify whether the entry WVDGESAPDDERRQWICDIG shows amyloid nucleation score of no less than -0.09? Criterion not met

Determine whether this substance has amyloid nucleation score no lower than -0.09: LPTSTVSCQNWDTLLTLCSG Criterion not met

* * *

# Procedure details: amyloid nucleation score (Sup35N fusion, yeast selection) (log enrichment); library NNK2; higher = more nucleation; inactive = no reads after selection
Catalogue of amyloid nucleation score readings, one per entry.
// return just the number, without any unit appended

Substance	amyloid nucleation score
TGFMVTFASST	0.02

Can you look up the measured amyloid nucleation score of FAGYECIE for me? -0.881

For the substance shown here, LRSYLNSHLLLEY , give the reported amyloid nucleation score. -1.44

Fill in: amyloid nucleation score of LLAFHCGHQMCFGVINMSTG is ___ 3.83

What amyloid nucleation score value was documented for this substance, LLPATWYLVLF ? -0.204

Item under review: TYNGMFTQLAFG . Reported amyloid nucleation score? 3.48

* * *

# Procedure details: amyloid nucleation score (Sup35N fusion, yeast selection) (log enrichment); library NNK2; higher = more nucleation; inactive = no reads after selection
Label rule met when amyloid nucleation score is at or above 0.08; otherwise label rule not met.

See these solved cases before continuing.
Substance	Label class
VWSRRYTLVGFTSVVPSNDN	rule met
IRCCAWFDLVSESRSRGTWT	rule met
CYRHVLFKATLKWCNFAVFI	rule met
FVRQDYKRVRDLFPTLNFDK	rule not met
DSIYVL	rule not met

# check: amyloid nucleation score of LYRNSMRRDR is greater than or equal to 0.08 rule not met

Reported amyloid nucleation score reaches at least 0.08 for NVITRGM ? rule met

Confirm if amyloid nucleation score reported for the substance CWVAYERSHTFRPKNQFFMH is 0.08 or above. rule met

* * *

# Procedure details: amyloid nucleation score (Sup35N fusion, yeast selection) (log enrichment); library NNK2; higher = more nucleation; inactive = no reads after selection
amyloid nucleation score for assorted substances
Please reply with the number alone, leaving off any unit.

Worked cases, amyloid nucleation score given:
Substance	amyloid nucleation score
AQVKKLDRARCRFQRVV	-1.4
MRLFFLVLICAYVVESGFQC	0.72
ALFFRTKTKHWVSCRFLMS	2.86
GDYGPSDIMKKQFLFVSLVY	-0.744
WVFGLCSIPLHCVLHGIMMG	2.92

# lookup: amyloid nucleation score of TVFWSNLVRVPCRSDTSQYD 0.148

Data request, read-out amyloid nucleation score, for MRAYFYNKRVISYSLISFPV -1.45

Which amyloid nucleation score reading was recorded for the substance IFSTGNVKGNLTR ? -0.491

Consider the substance HVAWGHFLLIHIFHVNYGYL and give its measured amyloid nucleation score. -0.627

Bench note: what amyloid nucleation score did PNNINRFRRSYFY show? -1.14

For the substance shown here, FGNRLNFDILTTFVIKRWCM , give the reported amyloid nucleation score. -0.342

Look at this substance and give its reported amyloid nucleation score. GLHSGNFTACICM 8.73

GET /values?readout=amyloid nucleation score&item= RVYLMLLVQYRTWSYVFVDC -0.402

Name the reported amyloid nucleation score value associated with the substance RTSKGAA 1.21

Please report the recorded amyloid nucleation score for MLSQASKT . -0.84

* * *

# Procedure details: amyloid nucleation score (Sup35N fusion, yeast selection) (log enrichment); library NNK2; higher = more nucleation; inactive = no reads after selection
Quantity measured: amyloid nucleation score

Examples with answers:
Substance	amyloid nucleation score
VDWVMNCYTSGVVSLSFSLG	inactive
WVGGYIQLFYVTRPQVSGRP	3.17
ACGPQPETLSGLMSRGLLRR	0.619
RPKLGSSVVRHVMFIGWGCG	0.797

Okay, next one:
# get_value(readout='amyloid nucleation score', item= ALFYLSCQPSTGALESRYLG ) 1.73

* * *

# Procedure details: amyloid nucleation score (Sup35N fusion, yeast selection) (log enrichment); library NNK2; higher = more nucleation; inactive = no reads after selection
The following substances are shown together with reported amyloid nucleation score values.
Give only the figure.

Solved cases below.
Substance	amyloid nucleation score
QLVGMD	0.868
GDGSRS	0.813
MLVLFADRRSMRDLDNTGFV	0.029
GSLNTLSIFDDE	-0.684
PFILLGTPELVTNGEHAERG	0.647
QDKYTSEECESRFVTYETVV	0.695

Consider the substance shown here: SEHLTCLWCLW What is its recorded amyloid nucleation score? 9.92

Field request: amyloid nucleation score | item: LTSISYIIGDRWSIEVGRVF -0.337

Param item = IRLFVRLNGHRWKRNW ; retrieve measured amyloid nucleation score. -0.003

Query: amyloid nucleation score; subject: FIFRMHAFNGIRLWCV 1.38

Record request: amyloid nucleation score value, item TLFLSMLLMASSCYMTCCGD -0.119

Which amyloid nucleation score reading was recorded for the substance TLDIALKGG ? 0.271

Could you tell me which amyloid nucleation score is on file for CYFSLQNSKDMRDLELDAIN ? -1.46

What amyloid nucleation score value was documented for this substance, KSRIDSESGGGQSFS ? -0.805

Dear colleague, I am looking for the recorded amyloid nucleation score of the following substance: TPYGFSFRTRYMKQADLALS -0.315

Please give the measured amyloid nucleation score for this substance: NSVFAGRRTRTSFP 0.227

Sample QSVKLFNSPTSAELILGTKE — what was its amyloid nucleation score? -0.982

Could you tell me which amyloid nucleation score is on file for SYSQGD ? 0.674

May I ask what amyloid nucleation score has been recorded for STMSFFSIGKLPEIVVGDSY ? -1.24

Reported amyloid nucleation score, substance EAHILRLYMLSRLSGIVHMV : ____ 0.434

Find the recorded amyloid nucleation score belonging to WRAIVPSGK and report it. 0.067

Give the measured amyloid nucleation score of WVLYGASLCYPWVTSSKLRA . 0.589
